Measured values drawn from ChEMBL document CHEMBL5038625 for this set.

system: M14; assay: Antiproliferative activity against human M14 cells assessed as cell growth inhibition at 10 uM incubated for 24 hrs by sulforhodamine B assay; type: functional; details: read-out: GI
MEASUREMENT_KIND: inhibition of growth at 10 µM

Record summary for NS(=O)(=O)c1ccc(Nc2cc(-c3ccccc3)nc(SCC(=O)c3ccc(Br)cc3)n2)cc1 : reported inhibition of growth at 10 µM = 7.75%

Record summary for COc1ccc(OC)c(-c2nc(SCC(=O)c3ccc(Br)cc3)nc(Nc3cccc(S(N)(=O)=O)c3)c2C#N)c1 : reported inhibition of growth at 10 µM = 6.53%

Record summary for COc1ccc(OC)c(-c2nc(SCC(=O)c3ccc(Br)cc3)nc(Nc3ccc(S(N)(=O)=O)cc3)c2C#N)c1 : reported inhibition of growth at 10 µM = 57.5%

Record summary for Cc1ccc(-c2nc(SCC(=O)c3ccccc3)nc(Nc3ccc(S(N)(=O)=O)cc3)c2C#N)cc1 : reported inhibition of growth at 10 µM = 63.3%
